Every entry's value here was drawn from PubChem BioAssay.

- Assay name: Pseudomonas biofilm growth suppression – PAO1 strain, BacTiter-Glo luminescence, LB-PBS, primary screen (AID 1144)
- Condition label: P. aeruginosa PAO1 biofilm, 12 h, higher = more signal
Threshold check on z-score: at or above 0.3 gives T, strictly below gives F.

- O=C1NC(=O)C2C1C=CC(C(O)c1cccs1)N2Nc1ccccn1 (stereo not drawn): F
- C[N+](C)(C)CCCCNC(=O)[C@H]1C[C@H]2C(=O)N3CCC[C@H]3C(=O)N2[C@H]1c1ccc(O)cc1: F
- COCCCNC(=O)[C@@]1(Cc2ccccc2I)c2ccccc2C(=O)N(Cc2ccccc2)[C@H]1c1ccc(CO)cc1: F
- CN1C(=O)C2C=CC(C(O)C=Cc3ccc([N+](=O)[O-])cc3)N(N3CCCCC3)C2C1=O (stereo not drawn): F
- COC(=O)[C@@]1(Cc2ccc(OC)cc2)[C@H]2c3cc(C(=O)N(C)C)n(Cc4ccc(OC)c(OC)c4)c3C[C@H]2CN1C(=O)c1ccccc1: T
- COC(=O)[C@@]1(Cc2ccc(F)cc2)[C@H]2c3cc(C(=O)N4CCCC4)n(CCc4ccc(OC)c(Br)c4)c3C[C@H]2CN1C(=O)c1ccccc1: T
- Oc1ccc2cc[n+](Cc3cccc(OC(F)(F)F)c3)cc2c1: F

* * *

- Assay name: compound effects on hepatocellular carcinoma cell viability – HepG2, calcein-AM fluorescence, 48 h, basal, profiling panel (AID 1164); further: test concentration not given here
- Condition label: higher = more signal
Listed here: items and their measured z-score.
Assay metric: z-score

• COC(=O)[C@@]1(Cc2ccc(OC)cc2)[C@H]2c3cc(C(=O)N(C)C)n(Cc4ccc(OC)c(OC)c4)c3C[C@H]2CN1C(=O)c1ccccc1 = -1.18
• C=C(C)[C@@H]1CC=C(C(O)C2C=CC3C(=O)N(Cc4ccccc4)C(=O)C3N2n2cnnc2)CC1 (some centres not stated) = -1.05
• [N-]=[N+]=NCc1ccccc1[C@@H]1OC(c2ccc(OCCCO)cc2)=N[C@]1(Cc1ccccc1)C(=O)O = 0.865
• CCOC(=O)C1=C[C@@H](C(C)(C)C)N(S(=O)(=O)c2ccc(C)cc2)[C@H]1c1ccc(Cl)c(Cl)c1 = -1.36
• C=CCC(OC(C)=O)[C@@H]1[C@@H](N(Cc2cc3ccccc3o2)C(=O)c2cccc3ccccc23)c2cc(OCCCO)ccc2N1C(=O)Cc1ccc(OC)cc1 (some centres not stated) = 0.222
• CC(C)CNC(=O)[C@@]1(C)c2ccccc2C(=O)N(C(C)C)[C@H]1c1ccc(CO)cc1 = -0.178
• COC(=O)[C@@]1(Cc2ccc(F)cc2)[C@H]2c3cc(C(=O)N4CCCC4)n(CCc4ccc(OC)c(Br)c4)c3C[C@H]2CN1C(=O)c1ccccc1 = -2.5

* * *

- System: Plasmodium falciparum Sir2 (PF13_0152, Sir2A)
- Assay name: Plasmodium falciparum Sir2A binding compounds – biochemical, small-molecule microarray, 635 nm fluorescence, primary screen (AID 1098);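 further: score merges spot fluorescence intensity with its signal-to-noise ratio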
- Condition label: fluorescence 635 nm, higher = more signal
Threshold check on composite z-score: at or above 0.8 gives label 1, strictly below gives label 0.

• O=C(NCc1ccccc1)[C@@H]1c2ccccc2C(=O)N(Cc2cc(F)cc(C(F)(F)F)c2)[C@H]1c1ccc(CO)cc1 = label 1
• O[C@@H](Cc1ccccc1)[C@@H](/C=C/c1ccccc1)NCc1ccccc1Br = label 0
• Cc1ccc(S[C@]2(C(=O)NCc3ccccc3)CC(=O)N(Cc3cc(C(F)(F)F)cc(C(F)(F)F)c3)[C@@H]2c2ccc(CO)cc2)cc1 = label 1
• COc1cc(CO)cc(I)c1O[C@H]1C=C(C(=O)NCCO)C[C@@H](N(CCc2cccc(F)c2)C(=O)CCC2CCCC2)[C@@H]1O = label 1
• CCCNC(=O)[C@@]1(C)c2ccccc2C(=O)N(C(C)C)[C@H]1c1ccc(CO)cc1 = label 1
• O=C1OCC=C[C@H]2OC34C=CCN(c5ccc(Cl)cc5)C(=O)[C@H]3N(CCCO)C(=O)[C@@H]4[C@@H]12 (stereo partly specified) = label 0
• Cc1ccc(N2C(=O)c3ccccc3[C@@H](C(=O)NC(C)C)[C@@H]2c2ccc(CO)cc2)nc1 = label 1
• O=C1O[C@@H](c2ccccc2)[C@@H](c2ccccc2)N2[C@@H](c3ccc(O)cc3)[C@]3(C(=O)Nc4ccccc43)[C@@H](C(=O)N3CCCCCCC3)[C@H]12 = label 1
• COc1ccccc1CN1C(=O)c2ccccc2[C@](Cc2ccccc2I)(C(=O)NC2CC2)[C@@H]1c1ccc(CO)cc1 = label 1
• C=CCOC(=O)[C@H]1[C@@H]2C(=O)O[C@@H](c3ccccc3)[C@@H](c3ccccc3)N2[C@@H](c2ccc(OCCOC(=O)[C@@H]3C[C@@H]4C(=O)NCC(=O)N4[C@@H]3c3ccc(O)cc3)cc2)[C@]12C(=O)Nc1ccc(I)cc12 = label 1
• CN(C)CCCCNC(=O)[C@@H]1C[C@@H]2C(=O)N[C@@H](CCCCN)C(=O)N2[C@@H]1c1cccc(OCCO)c1 = label 1
• CCCC[C@H]1OB(O)C[C@H]2C1=C(COc1ccccc1)C[C@H]1C(=O)N(Cc3ccccc3)C(=O)[C@H]12 = label 0
• O=c1cccc(-c2ccccc2)o1 = label 1
• C=C[C@H](C)[C@H](O)c1ccc(OCCO)cc1 = label 0
